# TARGET_OF_ASSAY: T1, human ROR1-Fz (Homo sapiens, UniProt Q01973)
# T1 construct: Frizzled (Fz, residues 165-305); His6 (C); purchased Acro Biosystems; host or cells: HEK293
# ASSAY_DETAILS: Biacore off-rate and kinetic analysis, ROR1-Fz
# Format: binding
# RUN_CONDITIONS: Table 11; SP34 light chain
RECORDED_ENDPOINT: Biacore human ROR1-Fz kd (s⁻¹)
Numbers only, in s⁻¹.

Solved cases below.
MOLECULE: SRP2196-A09 (antibody, V domains shown) VH: EVQLVESGGGLVQPGGSLRLSCAASGFNITGYYIHWVRQAPGKGLEWVGQISPNSGATHYADSVKGRFTISADTSKNTAYLQMNSLRAEDTAVYYCARDSRRYIRSWDYWGQGTLVTVSS VL: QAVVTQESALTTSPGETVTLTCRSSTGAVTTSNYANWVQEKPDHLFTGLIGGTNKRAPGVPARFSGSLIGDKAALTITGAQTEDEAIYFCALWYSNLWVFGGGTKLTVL
Biacore human ROR1-Fz kd, s⁻¹: 0.000568

MOLECULE: SRP2196-C01 (antibody, V domains shown) VH: EVQLVESGGGLVQPGGSLRLSCAASGFNIIGYYIHWVRQAPGKGLEWVGSITPLSGATSKADSVKGRFTISADTSKNTAYLQMNSLRAEDTAVYYCARDSRRYIRSWDYWGQGTLVTVSS VL: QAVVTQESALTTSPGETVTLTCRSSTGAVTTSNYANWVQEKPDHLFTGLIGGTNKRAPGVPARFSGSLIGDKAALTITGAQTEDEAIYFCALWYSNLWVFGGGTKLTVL
Biacore human ROR1-Fz kd, s⁻¹: 0.000457

Turning to the following molecule.
Q: Suppose we examine the molecule SRP2196-A06 (antibody, V domains shown) VH: EVQLVESGGGLVQPGGSLRLSCAASGFNITGYYIHWVRQAPGKGLEWVGQISPNSGSTHQADSVKGRFTISADTSKNTAYLQMNSLRAGDTAVYYCARDSRRYVRGWDYWGQGTLVTVSS VL: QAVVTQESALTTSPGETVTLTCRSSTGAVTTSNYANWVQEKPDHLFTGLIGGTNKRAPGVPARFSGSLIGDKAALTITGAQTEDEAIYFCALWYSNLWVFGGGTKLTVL ; what Biacore human ROR1-Fz kd value has been reported?
Result: 0.00069

Reference for the values: patent US12144869B2
